B1: CPEB3 Ribozyme (parent)
chain: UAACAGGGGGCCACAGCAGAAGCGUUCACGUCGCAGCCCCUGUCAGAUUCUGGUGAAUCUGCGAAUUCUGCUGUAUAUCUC

Variants of: B1
Assay: self-cleavage, relative activity (ratio to wild type); higher = more cleavage; in vitro, sequencing
Please use 1 whenever self-cleavage is not below 0.4, and 0 whenever it is.

Worked examples, 3 variants total:
[[record]]
sequence_chain = "UAACAGGGGGCCACAGCAGAAGCGUUCACGUCGCAGCCCCCGUCAGAUUCUGGUGAAUCUGCGAAUUCUGCUGUAUAUAUC [U41C C79A]"
category_label = 1

[[record]]
sequence_chain = "UAACAGGGGGUCACAGCAGAAGCGUUCACGUCGCAGCACCUGUCAGAUUCUGGUGAAUCUGCGAAUUCUGCUGUAUAUCUC [C11U C38A]"
category_label = 0

[[record]]
sequence_chain = "UAACAGGGGGCCACAGCAGAUGCGUUCACGUCGCGGCCCCUGUCAGAUUCUGGUGAAUCUGCGAAUUCUGCUGUAUAUCUC [A21U A35G]"
category_label = 1


# bool: self-cleavage of UAGCAGGGGGCCACAGCAGAAGCGUACACGUCGCAGCCCCUGUCAGAUUCUGGUGAAUCUGCGAAUUCUGCUGUAUAUCUC [A3G U26A] >= 0.4 1

API: above_or_equal(metric=self-cleavage, cutoff=0.4) for item UAACAGGGGGCCAUAGCAGAAGCGUUCACGUCGCAGCCCCUGUCAGAUUCUCGUGAAUCUGCGAAUUCUGCUGUAUAUCUC [C14U G52C] 1

Origin of the recorded values: the RNAGym collection of RNA variant scans (doi:10.1093/nar/gkz1192)
